// provenance: the Deep4Chem optical property database

experiment: solvent given as SMILES
measurementParameters: in CS(C)=O
Reported emission maximum values for a set of compounds

compound | emission maximum
N#CC(C#N)=C(/C=C/c1cn(-c2ccccc2)nc1-c1ccccc1)c1ccccc1 | 509 nm
COc1cccc2cc(-c3ccc([N+](=O)[O-])cc3)c(=N)oc12 | 392 nm
COc1ccc(/C=C/c2nc(/C=C/c3ccc(N(C)C)cc3)cc(/C=C/c3ccc(N(C)C)cc3)n2)cc1 | 598 nm
[O-]c1c(-c2nc3ccccc3s2)cc2ccc3cccc4ccc1c2c34 | 555 nm
O=C1CCCC2=C1C(c1ccc([N+](=O)[O-])cc1)c1c(c3ccccc3oc1=O)N2 (stereo unspecified) | 441 nm
CCCCCCCCCCCCOc1cc2cc(N(C)C)ccc2cc1C=C(C#N)C#N | 631 nm
Oc1ccccc1/C=N/c1ccc(Cn2cncn2)cc1 | 437.01 nm
CC1=[N+]2C(=C(c3c4ccccc4cc4ccccc34)c3ccc(C)n3[B-]2(F)F)C=C1 | 529 nm
COC(=O)C(Cc1ccc2oc(-c3ccc(Nc4ccccc4)cc3)nc2c1)NC(=O)OC(C)(C)C (stereo unspecified) | 459.5 nm
Cc1cc(=O)c2ccc(N)cc2o1 | 402 nm
CN(C)c1ccc2cc3c(cc2c1)OCCN=C3 | 447 nm
CN(C)c1ccc(/C=C/C=C2\CC/C(=C\c3ccc(N(C)C)cc3)C2=O)cc1 | 676 nm
Cc1ccc(-c2ccc(/C=C/c3cccn3C)cn2)nc1 | 500 nm
CN1/C(=C/C=C(/C=C/c2sc3ccccc3[n+]2C)c2cc(F)cc(F)c2)Sc2ccccc21 | 675 nm
c1ccc(-n2c(-c3cccc4ccccc34)nc3c4ccccc4c4ccccc4c32)cc1 | 423 nm
COc1ccc(C2CC(c3ccc(O)cc3)=NN2c2ccc(S(N)(=O)=O)cc2)cc1 (stereo unspecified) | 425 nm
CCOC(=O)CN1C(=O)C2=C(c3ccc(C#N)cc3)N(CC(=O)OCC)C(=O)C2=C1c1ccc(C#N)cc1 | 557 nm
NS(=O)(=O)c1ccc(N2N=C(c3ccc(O)cc3)CC2c2ccc(Cl)cc2)cc1 (stereo unspecified) | 424 nm
O=c1oc2ccccc2cc1-c1ccc([N+](=O)[O-])cc1 | 425 nm
CCC1=C(C)C(=O)n2c1cc1c(C)c(CCC(=O)O)c(C)n1c2=O | 510 nm
Cc1ccc2nc(-c3cc(-c4nc5ccc(C)cc5[nH]4)cc(-c4nc5ccc(C)cc5[nH]4)c3)[nH]c2c1 | 386.5 nm
COc1cccc2cc(-c3ccc([N+](=O)[O-])cc3)c(=O)oc12 | 385 nm
CCC1=C(C)C(=O)n2c1cc1c(C)c(CC)c(C)n1c2=O | 510 nm
c1cc2c3ccc[n+]4cccc(c5ccc[n+](c1)c25)c34 | 443 nm
CN(C)c1ccc2nc(-c3ccccc3)sc2c1Cl | 465.05 nm
CC(=O)c1c2c(cc3cc(N(C)C)ccc13)CCC2 | 558 nm
O=[N+]([O-])c1ccc(N/C=C/C=[NH+]c2ccc([N+](=O)[O-])cc2)cc1 | 508 nm
CN1CCN(c2ccc3c4c(cccc24)C(=O)c2ccccc2-3)CC1 | 624 nm
N#Cc1ccc(N/N=C/c2ccc3ccccc3c2O)cc1 | 456 nm
CCN1c2ccc(/C=N/Nc3ccccn3)cc2Sc2cc(-c3ccccc3)ccc21 | 503 nm
CN1/C(=C/C=C(/C=C/C2=[N+](C)c3ccccc3C2(C)C)c2ccc(C(F)(F)F)cc2)C(C)(C)c2ccccc21 | 665 nm
CCC1=C(C)c2cc3c(OC)cc(OC)cc3c(=O)n2C1=O | 485 nm
CCN1\C(=C/C=C/C=C/C2=[N+](CC)c3ccc4ccccc4c3C2(C)C)C(C)(C)c2c1ccc1ccccc21 | 705 nm
CCN(CC)c1ccc2nc3c4ccccc4c(=O)cc-3oc2c1 | 635 nm
CCC1(CC)c2cc(C=O)ccc2-c2ccc(N(C)C)cc21 | 532 nm
C#CCn1c2ccccc2c2cc(/C=C/C3=[N+]4C(=C(c5ccc(I)cc5)c5c(C)cc(/C=C/c6ccc7c(c6)c6ccccc6n7CC#C)n5[B-]4(F)F)C(C)=C3)ccc21 | 703 nm
CCOC(=O)C1=C(N)n2c(=O)c3ccccc3c(=O)n2C1c1ccc([N+](=O)[O-])cc1 (stereo unspecified) | 510 nm
CN(C)c1ccc2nc(/C=C/c3ccccc3)c(=O)oc2c1 | 581 nm
CCCCN1/C(=C/C=C/C2=[N+](C)c3ccccc3C2(C)C)Oc2ccccc21 | 537 nm
Oc1cccc(/N=C/c2ccccc2Oc2ccccc2)c1 | 396 nm
COc1ccc(NC(=O)C(C(=O)Nc2ccc(OC)cc2)C(c2cc(F)ccc2O)c2c[nH]c3ccc(OC)cc23)cc1 (stereo unspecified) | 341 nm

###

experiment: solvent given as SMILES
measurementParameters: in CN(C)C=O
Reported emission maximum values for a set of compounds
reportedMetric: emission maximum

smilesCode | reportedMetric | experimentalValue
COc1ccc(-c2c3ccccc3c3n2[B-](F)(F)[N+]2=Cc4c5ccccc5c(-c5ccc(OC)cc5)n4[B-](F)(F)[N+]2=C3)cc1 | emission maximum | 613 nm
CCC1(CC)c2cc(C#Cc3cc(C#Cc4ccc5c(c4)C(CC)(CC)c4cc(N(c6ccccc6)c6ccccc6)ccc4-5)c4ccc5c(C#Cc6ccc7c(c6)C(CC)(CC)c6cc(N(c8ccccc8)c8ccccc8)ccc6-7)cc(C#Cc6ccc7c(c6)C(CC)(CC)c6cc(N(c8ccccc8)c8ccccc8)ccc6-7)c6ccc3c4c65)ccc2-c2ccc(N(c3ccccc3)c3ccccc3)cc21 | emission maximum | 557 nm
COC(=O)c1ccc(C#Cc2ccc(N(C)C)cc2)cc1 | emission maximum | 524 nm
CN(C)c1ccc(/C=C/C=C2\CC/C(=C\c3ccc(N(C)C)cc3)C2=O)cc1 | emission maximum | 656 nm
CN(C)c1ccc(/C=C/c2cc[n+](C)cc2)cc1 | emission maximum | 596 nm
COc1cc(/C=C/c2cc(OC)c(-c3nc(-c4ccccc4)c(-c4ccccc4)[nH]3)cc2OC)c(OC)cc1/C=C/c1cc(OC)c(-c2nc(-c3ccccc3)c(-c3ccccc3)[nH]2)cc1OC | emission maximum | 512 nm

###

experiment: solvent given as SMILES
measurementParameters: in CC#N

smilesCode | emission maximum [nm]
N#Cc1cc(-n2c3ccccc3c3ncccc32)c(-n2c3ccccc3c3ncccc32)cc1C#N | 520.47
Nc1ccc(/C=C/c2ccc3ccccc3c2)cc1 | 450
COc1cc(OC)c(C2=C3C(C)=CC(C)=[N+]3[B-](F)(F)n3c(C)cc(C)c32)c(OC)c1 | 513
[O-]c1c(-c2nc3ccccc3s2)cc2ccc3cccc4ccc1c2c34 | 553.72
CCn1c(=O)nc2n(C)c3cc(C)ccc3nc-2c1=O | 530

###

experiment: solvent given as SMILES
measurementParameters: in c1ccc2c(c1)c1ccccc1n2-c1ccc(-c2ccc(-n3c4ccccc4c4ccccc43)cc2)cc1
Reported emission maximum values for a set of molecules

smilesCode | emission maximum / nm
O=C(c1ccc(N2c3ccccc3Sc3ccccc32)cc1)c1ccc2sc3ccccc3c2c1 | 524
O=C(/C=C(\O)c1ccc(N2c3ccccc3Oc3ccccc32)cc1)c1ccc(N2c3ccccc3Oc3ccccc32)cc1 | 550.32
O=P1(c2ccccc2)c2ccc(N3c4ccccc4Sc4ccccc43)cc2-c2cc(N3c4ccccc4Sc4ccccc43)ccc21 | 555
C(=C\c1ccc(-n2c3ccccc3c3ccccc32)cc1)/c1ccc(-c2ccc(/C=C/c3ccc(-n4c5ccccc5c5ccccc54)cc3)cc2)cc1 | 438
CC1(C)c2ccccc2N(c2ccc(-c3ccc4c(c3)C(=O)c3ccc(-c5ccc(N6c7ccccc7C(C)(C)c7ccccc76)cc5)cc3C4=O)cc2)c2ccccc21 | 564
CC(C)(C(=O)c1ccc(N2c3ccccc3Oc3ccccc32)cc1)C(=O)c1ccc(N2c3ccccc3Oc3ccccc32)cc1 | 520.81

###

experiment: solvent given as SMILES
measurementParameters: in Cc1ccccc1

compound | resultUnit | emission maximum
CC(C)(C)c1ccc2c(c1)c1cc(C(C)(C)C)ccc1n2-c1ccc(-c2nc3cc(C#N)c(C#N)cc3nc2-c2ccc(-n3c4ccc(C(C)(C)C)cc4c4cc(C(C)(C)C)ccc43)cc2)cc1 | nm | 544
CCN(CC)c1ccc(/C=C/C2=[O+][B-](F)(F)Oc3c2c(=O)oc2cc(N(CC)CC)ccc32)cc1 | nm | 597
Cc1ccc2c(c1)C1(c3ccccc3-c3ccccc31)c1cc(C)ccc1N2c1ccc2c(c1)Sc1ccccc1P2(=O)c1ccccc1 (stereo unspecified) | nm | 454.61
CCC1(CC)c2cc(B(c3c(C)cc(C)cc3C)c3c(C)cc(C)cc3C)ccc2-c2ccc(N(c3ccccc3)c3ccc4c(c3)C(CC)(CC)c3cc(B(c5c(C)cc(C)cc5C)c5c(C)cc(C)cc5C)ccc3-4)cc21 | nm | 461
CC1(C)c2ccccc2N(c2ccc3c(ccc4nc5ccc6cc(N7c8ccccc8C(C)(C)c8ccccc87)ccc6c5nc43)c2)c2ccccc21 | nm | 552
C(#Cc1cc2ccc3cc(C#Cc4ccccc4)cc4ccc(c1)c2c34)c1ccccc1 | nm | 418
